The measurements presented in this section are drawn from ChEMBL document CHEMBL1201862.

Test system: SK-OV-3
Assay Overview: NCI tumour cell line growth inhibition, 48 h
The source made the active and inactive calls. No stated cut-off is given here; in the data, active = GI50 up to about 1.1 µM and inactive = higher.
The reader will find reported GI50 values listed item by item below.

| Molecule | GI50 |
| --- | --- |
| CC(CNC(=O)c1ccccc1)(CNC(=O)c1ccccc1)[N+](=O)[O-] | > 100 µM (inactive) |
| O=C(c1ccccc1)c1c(-c2ccccc2)sc2nc3ccccc3nc12 | > 100 µM (inactive) |
| COC(=O)NN=C(c1ccc(Cl)cc1)c1ccc(Cl)cc1 | > 100 µM (inactive) |
| N#C/C(=C/c1cccnc1)C(=O)c1ccccc1 | > 100 µM (inactive) |
| C=C(C(=O)OC)[C@H]1CC/C(C)=C/CC/C(C)=C/CC[C@@]2(C)O[C@@H]2C1 | 43.7 µM (inactive) |
| O=C(O)C1CCN(Cc2oc(CO)cc(=O)c2O)C1 (stereo unspecified) | > 100 µM (inactive) |
